# credit: patent US10597388B2

Attribute: Plant response rating, Waterhemp
tested on: waterhemp (common waterhemp, Amaranthus rudis); assay: Test C greenhouse herbicide test, pre- and postemergence; type: in vivo; details: Preemergence, 62 g ai/ha; scale 0 to 100, 0 is no effect, 100 is complete control

| chem.smiles | Plant response rating, Waterhemp |
| --- | --- |
| CCCC(=O)Oc1c(C)nn(C)c(=O)c1-c1c(CC)sc2ccc(C)cc12 | 75 |
| Cc1cc(C)c2ccccc2c1-c1c(O)c(C)nn(C)c1=O | 95 |
| CCC(=O)Oc1c(C)nn(C)c(=O)c1-c1ccc(Br)c2ccccc12 | 98 |
| Cc1cc(C)c2sc(C)c(-c3c(O)c(C)nn(C)c3=O)c2c1 | 100 |
| CCc1sc2c(C)cc(C)cc2c1-c1c(O)c(C)nn(C)c1=O | 98 |
| Cc1nn(C)c(=O)c(-c2c(C)sc3c(C)cc(Cl)cc23)c1O | 50 |
| CCc1oc2ccc(C)cc2c1-c1c(O)c(C)nn(C)c1=O | 0 |
| Cc1nn(C)c(=O)c(-c2cccc3ccccc23)c1O | 100 |
| CCc1sc2ccc(C)cc2c1-c1c(O)c(C)nn(C)c1=O | 98 |

---

tested on: wheat, spring (spring wheat, Triticum aestivum); test: Test D controlled growth environment herbicide test, pre- and postemergence; format: in vivo; details: postemergence, 62 g ai/ha; scale 0 to 100, 0 no effect, 100 complete control

| molecule | Plant response rating, Wheat, Spring |
| --- | --- |
| Cc1ccc2sc(C)c(-c3c(OC(=O)OC(C)C)c(C)nn(C)c3=O)c2c1 [Compound 66] | 0 |
| Cc1cc(C)c2sc(C)c(-c3c(O)c(C)nn(C)c3=O)c2c1 [Compound 2] | 0 |
| Cc1nn(C)c(=O)c(-c2ccc(Br)c3ccccc23)c1O [Compound 75] | 0 |
| CCc1sc2c(C)cc(C)cc2c1-c1c(O)c(C)nn(C)c1=O [Compound 57] | 10 |
| Cc1cc2ccccc2c(-c2c(O)c(C)nn(C)c2=O)c1C [Compound 34] | 10 |
| Cc1nn(C)c(=O)c(-c2c(C)sc3c(C)cc(Cl)cc23)c1O [Compound 35] | 20 |

---

test system: blackgrass (Alopecurus myosuroides); experiment: Test A greenhouse herbicide test, postemergence; type: in vivo; settings: 500 g ai/ha, 0 to 100 scale, 0 is no effect, 100 is complete control
Reported Blackgrass plant response rating values for a set of molecules
recorded.metric: Blackgrass plant response rating

| chem.smiles | recorded.number |
| --- | --- |
| COC(=O)Oc1cnn(C)c(=O)c1-c1c(C)sc2ccccc12 | 90 |
| Cc1ccc2sc(C)c(-c3c(OC(=O)OC(C)C)c(C)nn(C)c3=O)c2c1 | 80 |
| Cc1nn(C)c(=O)c(-c2c(C)n(C)c3ccc(Cl)cc23)c1O | 40 |
| Cc1ccc2sc(Br)c(-c3c(O)c(C)nn(C)c3=O)c2c1 | 80 |
| Cc1nn(C)c(=O)c(-c2cccc3ccc(I)cc23)c1O | 30 |
| CCOc1ccc2oc(CC)c(-c3c(O)c(C)nn(C)c3=O)c2c1 | 10 |
| Cc1ccc2oc(C)c(-c3c(O)c(-c4ccccc4)nn(C)c3=O)c2c1 | 0 |
| Cc1nn(C)c(=O)c(-c2c(Cl)n(C)c3ccccc23)c1O | 10 |
| CCC(=O)Oc1c(C)nn(C)c(=O)c1-c1c(C)ccc2ccccc12 | 80 |
| Cn1nc(Br)c(O)c(-c2cccc3ccccc23)c1=O | 40 |
| Cc1nn(C)c(=O)c(-c2ccc(F)c3ccccc23)c1O | 90 |
| CCc1nn(C)c(=O)c(-c2c(C)oc3ccc(Cl)cc23)c1O | 0 |

---

tested on: soybean (Glycine max); experiment: Test C greenhouse herbicide test, pre- and postemergence; assay type: in vivo; details: Postemergence, 31 g ai/ha; 0 to 100 scale (0 no effect, 100 complete control)
Quick list: Soybean plant response rating per entry.

| chem.smiles | Soybean plant response rating |
| --- | --- |
| Cc1cc(C)c2sc(C)c(-c3c(O)c(C)nn(C)c3=O)c2c1 | 0 |
| Cc1ccc2ccccc2c1-c1c(O)c(Br)nn(C)c1=O | 5 |
| CCc1oc2ccc(C)cc2c1-c1c(O)c(C)nn(C)c1=O | 0 |
| Cc1nn(C)c(=O)c(-c2cccc3ccccc23)c1O | 0 |

---

system: ryegrass, Italian (Italian ryegrass, Lolium multiflorum); experiment: Test C greenhouse herbicide test, pre- and postemergence; assay type: in vivo; details: Preemergence, 125 g ai/ha; scale 0 to 100, 0 is no effect, 100 is complete control
Description: […]
Below is a list of entries, each paired with its recorded Plant response rating, Ryegrass, Italian value.

| chem.smiles | Plant response rating, Ryegrass, Italian |
| --- | --- |
| Cc1nn(C)c(=O)c(-c2c(C)sc3ccc(C(F)(F)F)cc23)c1O | 95 |
| Cc1cc(C)c2sc(C)c(-c3c(O)c(C)nn(C)c3=O)c2c1 | 98 |
| Cc1ccc2sc(C)c(-c3c(OC(=O)OC(C)C)c(C)nn(C)c3=O)c2c1 | 80 |
| Cc1ccc2ccccc2c1-c1c(O)c(C(F)(F)F)nn(C)c1=O | 50 |
| CCC(=O)Oc1c(OC)nn(C)c(=O)c1-c1c(C)sc2ccc(Cl)cc12 | 95 |
| CCCC(=O)Oc1c(C)nn(C)c(=O)c1-c1c(CC)sc2ccc(C)cc12 | 35 |
| CC(=O)Oc1c(C)nn(C)c(=O)c1-c1c(C)cc(C)c2ccccc12 | 100 |
| CC(=O)Oc1c(C)nn(C)c(=O)c1-c1c(C)sc2ccc(Cl)cc12 | 90 |
| CCc1sc2c(C)cc(C)cc2c1-c1c(O)c(C)nn(C)c1=O | 70 |

---

Plant response rating, Field Poppy: recorded values
test system: field poppy (Papaver rhoeas); assay: Test D controlled growth environment herbicide test, pre- and postemergence; type: in vivo; settings: Preemergence, 250 g ai/ha; scale 0 to 100, 0 no effect, 100 complete control
From the text: […]

| molecule | Plant response rating, Field Poppy |
| --- | --- |
| Cc1ccc2sc(C)c(-c3c(OC(=O)OC(C)C)c(C)nn(C)c3=O)c2c1 [Compound 66] | 100 |
| Cc1nn(C)c(=O)c(-c2ccc(F)c3ccccc23)c1O [Compound 41] | 95 |
| Cc1cc2ccccc2c(-c2c(O)c(C)nn(C)c2=O)c1C [Compound 34] | 100 |
| Cc1nn(C)c(=O)c(-c2c(C)sc3c(C)cc(Cl)cc23)c1O [Compound 35] | 100 |

---

test system: beggarticks (hairy beggarticks, Bidens pilosa); assay: Test E greenhouse herbicide test, pre- and postemergence; type: in vivo; conditions: Preemergence, 31 g ai/ha; scale 0 to 100, 0 no effect, 100 complete control
recorded.metric: Plant response rating, Beggarticks

| compound | result |
| --- | --- |
| Cc1nn(C)c(=O)c(-c2ccc(F)c3ccccc23)c1O [Compound 41] | 65 |
| CCc1sc2ccc(C)cc2c1-c1c(O)c(C)nn(C)c1=O [Compound 47] | 100 |
| Cc1cc2ccccc2c(-c2c(O)c(C)nn(C)c2=O)c1C [Compound 34] | 90 |
| Cc1ccc2ccccc2c1-c1c(O)c(I)nn(C)c1=O [Compound 29] | 80 |
| Cc1ccc2sc(C)c(-c3c(OC(=O)OC(C)C)c(C)nn(C)c3=O)c2c1 [Compound 66] | 70 |

---

Each entry below lists one item and its recorded Ragweed plant response rating value.
test system: ragweed (common ragweed, Ambrosia elatior); assay: Test C greenhouse herbicide test, pre- and postemergence; assay type: in vivo; conditions: postemergence, 62 g ai/ha; scale 0 to 100, 0 no effect, 100 complete control
recorded.metric: Ragweed plant response rating

| chem.smiles | recorded.number |
| --- | --- |
| Cc1ccc2ccccc2c1-c1c(OC(=O)OC(C)C)c(C)nn(C)c1=O | 90 |
| COC(=O)Oc1cnn(C)c(=O)c1-c1c(C)sc2ccccc12 | 10 |
| Cc1cc(C)c2ccccc2c1-c1c(O)c(C)nn(C)c1=O | 90 |
| CCc1sc2c(C)cc(C)cc2c1-c1c(O)c(C)nn(C)c1=O | 90 |
| Cc1ccc2ccccc2c1-c1c(O)c(Br)nn(C)c1=O | 90 |
| Cc1ccc2sc(Br)c(-c3c(O)c(C)nn(C)c3=O)c2c1 | 95 |
| CCc1oc2ccc(C)cc2c1-c1c(O)c(C)nn(C)c1=O | 30 |
| Cc1nn(C)c(=O)c(-c2c(C)sc3ccc(Br)cc23)c1O | 75 |
| Cc1nn(C)c(=O)c(-c2ccc(Br)c3ccccc23)c1O | 85 |

---

tested on: barnyardgrass (Echinochloa crus-galli); assay: Test A greenhouse herbicide test, pre- and postemergence; format: in vivo; details: Preemergence, 125 g ai/ha; 0 to 100 scale where 0 is no effect and 100 is complete control
Measured Barnyardgrass plant response rating values are reported for all entries that follow.

| chem.smiles | system.tested | Barnyardgrass plant response rating |
| --- | --- | --- |
| CCC(=O)Oc1c(C)nn(C)c(=O)c1-c1ccc(F)c2ccccc12 | barnyardgrass (Echinochloa crus-galli) | 70 |
| Cc1nn(C)c(=O)c(-c2c(Cl)n(C)c3ccccc23)c1O | barnyardgrass (Echinochloa crus-galli) | 0 |
| CCc1sc2c(C)cc(C)cc2c1-c1c(O)c(C)nn(C)c1=O | barnyardgrass (Echinochloa crus-galli) | 100 |
| Cc1ccc2oc(C)c(-c3c(O)c(-c4ccccc4)nn(C)c3=O)c2c1 | barnyardgrass (Echinochloa crus-galli) | 0 |
| CCC(=O)Oc1c(C)nn(C)c(=O)c1-c1ccc(Br)c2ccccc12 | barnyardgrass (Echinochloa crus-galli) | 20 |
| CCC(=O)Oc1c(C)nn(C)c(=O)c1-c1c(C)ccc2ccccc12 | barnyardgrass (Echinochloa crus-galli) | 0 |
| CCc1nn(CC)c(=O)c(-c2c(C)oc3ccc(C)cc23)c1O | barnyardgrass (Echinochloa crus-galli) | 0 |
| CCc1sc2ccc(C)cc2c1-c1c(O)c(C)nn(C)c1=O | barnyardgrass (Echinochloa crus-galli) | 70 |
| Cc1ccc2sc(Br)c(-c3c(O)c(C)nn(C)c3=O)c2c1 | barnyardgrass (Echinochloa crus-galli) | 50 |
